Each entry below carries its reported Metabolic stability (Qh %), % hepatic blood flow.
- PROTOCOL_TEXT: Human liver microsome (HLM) metabolic stability assay
- Type: in vitro ADME
- ASSAY_SETUP: human liver microsomes

Take a look at these entries with their results.
In one line, give reported Metabolic stability (Qh %), % hepatic blood flow of the entry Cc1cccc(-c2cccc(N3CC[C@@]4(C(=O)O)C[C@H]4C3)n2)c1OCc1ccc2c(c1C)CCN(C1CCOCC1)C2 . 61%

In one line, give reported Metabolic stability (Qh %), % hepatic blood flow of the entry COCc1cc(COc2c(C)cccc2-c2cccc(N3CC[C@H](C(=O)O)[C@H](OC)C3)n2)cc2c1CN(C1COC1)CC2 . <24%

In one line, give reported Metabolic stability (Qh %), % hepatic blood flow of the entry Cc1cc(COc2ccccc2-c2cccc(N3CC[C@@]4(C(=O)O)C[C@H]4C3)n2)cc2c1CN(C1CCOCC1)CC2 . <24%

In one line, give reported Metabolic stability (Qh %), % hepatic blood flow of the entry CCO[C@H]1CN(c2cccc(-c3cccc(C)c3OCc3cc4c(c(OC)c3)CN(C3CCOCC3)CC4)n2)CC[C@H]1C(=O)O . 55%

In one line, give reported Metabolic stability (Qh %), % hepatic blood flow of the entry CO[C@@H]1CN(c2nc(-c3cccc(Cl)c3OCc3ccc4c(c3)[C@@H](C)CN(C3CCOCC3)CC4)cs2)CC[C@@H]1C(=O)O . <24%

Further cases:
In one line, give reported Metabolic stability (Qh %), % hepatic blood flow of the entry COC[C@H]1N(c2cccc(-c3cccc(C)c3OCc3ccc4c(c3C)CCN(C3CCOCC3)C4)n2)C[C@@H]2C[C@@]21C(=O)O . <24%

In one line, give reported Metabolic stability (Qh %), % hepatic blood flow of the entry COC[C@H]1N(c2cccc(-c3cccc(C)c3OCc3cc(C)c4c(c3)CCN(C3CCOCC3)C4)n2)C[C@@H]2C[C@@]21C(=O)O . <24%

In one line, give reported Metabolic stability (Qh %), % hepatic blood flow of the entry Cc1ccc(OCc2ccc3c(c2)CCN(C2CCOCC2)CC3)c(-c2csc(N3C[C@@H]4C[C@]4(C(=O)O)C3)n2)c1 . <24%

In one line, give reported Metabolic stability (Qh %), % hepatic blood flow of the entry COc1cc(COc2c(Cl)cccc2-c2csc(N3CC[C@@H](C(=O)O)[C@@H](OC)C3)n2)cc2c1CN(C1CCOCC1)CC2 . <24%
